# experimental_details: Absorbance and fluorescence maximum wavelengths and quantum yields of the CyNA library
# Format: physicochemical
# study_conditions: CyNA library

[
  {
    "compound": "CCCN1/C(=C/C=C2\\CCCC(/C=C/C3=[N+](CCC)c4ccccc4C3(C)C)=C2N(Cc2c(F)cccc2F)C(C)=O)C(C)(C)c2ccccc21 [CyNA-80]",
    "λabs, absorbance maximum wavelength [nm]": 804
  },
  {
    "compound": "CCCCN(C(C)=O)C1=C(/C=C/C2=[N+](CCC)c3ccccc3C2(C)C)CCC/C1=C\\C=C1\\N(CCC)c2ccccc2C1(C)C [CyNA-373]",
    "λabs, absorbance maximum wavelength [nm]": 805
  },
  {
    "compound": "CCCN1/C(=C/C=C2\\CCCC(/C=C/C3=[N+](CCC)c4ccccc4C3(C)C)=C2N(CC(C)CC)C(C)=O)C(C)(C)c2ccccc21 (stereo not drawn) [CyNA-574]",
    "λabs, absorbance maximum wavelength [nm]": 803
  },
  {
    "compound": "CCCN1/C(=C/C=C2\\CCCC(/C=C/C3=[N+](CCC)c4ccccc4C3(C)C)=C2N(Cc2cc(OC)cc(OC)c2)C(C)=O)C(C)(C)c2ccccc21 [CyNA-262]",
    "λabs, absorbance maximum wavelength [nm]": 803
  },
  {
    "compound": "CCCN1/C(=C/C=C2\\CCCC(/C=C/C3=[N+](CCC)c4ccccc4C3(C)C)=C2N(Cc2ccc(Cl)cc2)C(C)=O)C(C)(C)c2ccccc21 [CyNA-221]",
    "λabs, absorbance maximum wavelength [nm]": 803
  },
  {
    "compound": "CCCN1/C(=C/C=C2\\CCCC(/C=C/C3=[N+](CCC)c4ccccc4C3(C)C)=C2N(CCC(C)C)C(C)=O)C(C)(C)c2ccccc21 [CyNA-442]",
    "λabs, absorbance maximum wavelength [nm]": 806
  }
]

----------
# experimental_details: Characterization of the CyNAMLA library (absorbance maximum wavelengths)
# Assay type: physicochemical
# study_conditions: absorbance maximum wavelength of CyNAMLA library compounds

[
  {
    "compound": "CCCN1/C(=C/C=C2\\CCCC(/C=C/C3=[N+](CCCNC(=O)CCCCC4CCSS4)c4ccccc4C3(C)C)=C2N(CCN2CCCCC2)C(C)=O)C(C)(C)c2ccccc21.O=C([O-])C(F)(F)F (centres unmarked)",
    "λabs (max), nm": 805
  },
  {
    "compound": "CCCN1/C(=C/C=C2\\CCCC(/C=C/C3=[N+](CCCNC(=O)CCCCC4CCSS4)c4ccccc4C3(C)C)=C2N(C(C)=O)C2CCCC2)C(C)(C)c2ccccc21.O=C([O-])C(F)(F)F (centres unmarked)",
    "λabs (max), nm": 804
  },
  {
    "compound": "CCCN1/C(=C/C=C2\\CCCC(/C=C/C3=[N+](CCCNC(=O)CCCCC4CCSS4)c4ccccc4C3(C)C)=C2N(Cc2cc(OC)cc(OC)c2)C(C)=O)C(C)(C)c2ccccc21.O=C([O-])C(F)(F)F (centres unmarked)",
    "λabs (max), nm": 805
  },
  {
    "compound": "CCCN1/C(=C/C=C2\\CCCC(/C=C/C3=[N+](CCCNC(=O)CCCCC4CCSS4)c4ccccc4C3(C)C)=C2N(Cc2ccc(F)cc2)C(C)=O)C(C)(C)c2ccccc21.O=C([O-])C(F)(F)F (centres unmarked)",
    "λabs (max), nm": 804
  },
  {
    "compound": "CCCN1/C(=C/C=C2\\CCCC(/C=C/C3=[N+](CCCNC(=O)CCCCC4CCSS4)c4ccccc4C3(C)C)=C2N(Cc2cccc(OC)c2)C(C)=O)C(C)(C)c2ccccc21.O=C([O-])C(F)(F)F (centres unmarked)",
    "λabs (max), nm": 804
  },
  {
    "compound": "CCCN1/C(=C/C=C2\\CCCC(/C=C/C3=[N+](CCCNC(=O)CCCCC4CCSS4)c4ccccc4C3(C)C)=C2N(CCc2ccc(Cl)cc2)C(C)=O)C(C)(C)c2ccccc21.O=C([O-])C(F)(F)F (centres unmarked)",
    "λabs (max), nm": 805
  },
  {
    "compound": "CCCCCCCN(C(C)=O)C1=C(/C=C/C2=[N+](CCCNC(=O)CCCCC3CCSS3)c3ccccc3C2(C)C)CCC/C1=C\\C=C1\\N(CCC)c2ccccc2C1(C)C.O=C([O-])C(F)(F)F (centres unmarked)",
    "λabs (max), nm": 804
  },
  {
    "compound": "CCCN1/C(=C/C=C2\\CCCC(/C=C/C3=[N+](CCCNC(=O)CCCCC4CCSS4)c4ccccc4C3(C)C)=C2N(Cc2ccc(OC)cc2OC)C(C)=O)C(C)(C)c2ccccc21.O=C([O-])C(F)(F)F (centres unmarked) [CyNAMLA-358]",
    "λabs (max), nm": 804
  },
  {
    "compound": "CCCN1/C(=C/C=C2\\CCCC(/C=C/C3=[N+](CCCNC(=O)CCCCC4CCSS4)c4ccccc4C3(C)C)=C2N(Cc2ccc(Cl)cc2Cl)C(C)=O)C(C)(C)c2ccccc21.O=C([O-])C(F)(F)F (centres unmarked)",
    "λabs (max), nm": 805
  },
  {
    "compound": "CCCN1/C(=C/C=C2\\CCCC(/C=C/C3=[N+](CCCNC(=O)CCCCC4CCSS4)c4ccccc4C3(C)C)=C2N(CC2CCCCC2)C(C)=O)C(C)(C)c2ccccc21.O=C([O-])C(F)(F)F (centres unmarked)",
    "λabs (max), nm": 804
  },
  {
    "compound": "CCCCCCCCCCN(C(C)=O)C1=C(/C=C/C2=[N+](CCCNC(=O)CCCCC3CCSS3)c3ccccc3C2(C)C)CCC/C1=C\\C=C1\\N(CCC)c2ccccc2C1(C)C.O=C([O-])C(F)(F)F (centres unmarked)",
    "λabs (max), nm": 806
  },
  {
    "compound": "CCCN1/C(=C/C=C2\\CCCC(/C=C/C3=[N+](CCCNC(=O)CCCCC4CCSS4)c4ccccc4C3(C)C)=C2N(Cc2ccc(OC)c(OC)c2)C(C)=O)C(C)(C)c2ccccc21.O=C([O-])C(F)(F)F (centres unmarked)",
    "λabs (max), nm": 805
  },
  {
    "compound": "CCCN1/C(=C/C=C2\\CCCC(/C=C/C3=[N+](CCCNC(=O)CCCCC4CCSS4)c4ccccc4C3(C)C)=C2N(CCCN(C)C)C(C)=O)C(C)(C)c2ccccc21.O=C([O-])C(F)(F)F (centres unmarked)",
    "λabs (max), nm": 805
  },
  {
    "compound": "CCCN1/C(=C/C=C2\\CCCC(/C=C/C3=[N+](CCCNC(=O)CCCCC4CCSS4)c4ccccc4C3(C)C)=C2N(CC(C)CC)C(C)=O)C(C)(C)c2ccccc21.O=C([O-])C(F)(F)F (centres unmarked)",
    "λabs (max), nm": 804
  },
  {
    "compound": "CCCN1/C(=C/C=C2\\CCCC(/C=C/C3=[N+](CCCNC(=O)CCCCC4CCSS4)c4ccccc4C3(C)C)=C2N(C(C)=O)C(C)CCc2ccccc2)C(C)(C)c2ccccc21.O=C([O-])C(F)(F)F (centres unmarked)",
    "λabs (max), nm": 804
  },
  {
    "compound": "CCCN1/C(=C/C=C2\\CCCC(/C=C/C3=[N+](CCCNC(=O)CCCCC4CCSS4)c4ccccc4C3(C)C)=C2N(CCc2ccc(OC)c(OC)c2)C(C)=O)C(C)(C)c2ccccc21.O=C([O-])C(F)(F)F (centres unmarked)",
    "λabs (max), nm": 806
  },
  {
    "compound": "CCCN1/C(=C/C=C2\\CCCC(/C=C/C3=[N+](CCCNC(=O)CCCCC4CCSS4)c4ccccc4C3(C)C)=C2N(C(C)=O)C2CCCCC2)C(C)(C)c2ccccc21.O=C([O-])C(F)(F)F (centres unmarked)",
    "λabs (max), nm": 803
  },
  {
    "compound": "CCCN1/C(=C/C=C2\\CCCC(/C=C/C3=[N+](CCCNC(=O)CCCCC4CCSS4)c4ccccc4C3(C)C)=C2N(Cc2ccc3c(c2)OCO3)C(C)=O)C(C)(C)c2ccccc21.O=C([O-])C(F)(F)F (centres unmarked)",
    "λabs (max), nm": 806
  },
  {
    "compound": "CCCN1/C(=C/C=C2\\CCCC(/C=C/C3=[N+](CCCNC(=O)CCCCC4CCSS4)c4ccccc4C3(C)C)=C2N(Cc2cccc(Br)c2)C(C)=O)C(C)(C)c2ccccc21.O=C([O-])C(F)(F)F (centres unmarked)",
    "λabs (max), nm": 804
  },
  {
    "compound": "CCCN1/C(=C/C=C2\\CCCC(/C=C/C3=[N+](CCCNC(=O)CCCCC4CCSS4)c4ccccc4C3(C)C)=C2N(Cc2cccc(C)c2)C(C)=O)C(C)(C)c2ccccc21.O=C([O-])C(F)(F)F (centres unmarked)",
    "λabs (max), nm": 805
  }
]
